Data origin, for the record: ChEMBL document CHEMBL3124932

- system-tested: Butyrylcholinesterase (Rattus norvegicus)
- assay-protocol: Inhibition of rat serum BuChE using butyrylthiocholine iodide as substrate at 50 uM after 15 mins by Ellman's method
inhibition reference
# unit: % | format: bare number

Before answering, review these 3 worked examples.
CCN(CCCOc1cc(O)c2c(=O)c(-c3ccc(O)cc3)coc2c1)Cc1ccccc1 ... 9.9
COc1ccccc1CN(C)CCCCOc1ccc(-c2coc3cc(O)cc(O)c3c2=O)cc1 ... 9.7
CCN(CCCOc1ccc(-c2coc3cc(OCCCN(CC)Cc4ccccc4OC)cc(O)c3c2=O)cc1)Cc1ccccc1OC ... 12.5

Q: Returns the measured inhibition for the input compound. Input: CCN(CCCCOc1ccc(-c2coc3cc(OCCCCN(CC)Cc4ccccc4OC)cc(O)c3c2=O)cc1)Cc1ccccc1OC
A: 20

Q: Returns the measured inhibition for the input compound. Input: CN(CCCOc1cc(O)c2c(=O)c(-c3ccc(O)cc3)coc2c1)Cc1ccccc1
A: 7.4

Q: Returns the measured inhibition for the input compound. Input: CN(CCCCCCOc1ccc(-c2coc3cc(O)cc(O)c3c2=O)cc1)Cc1ccccc1
A: 7.7

Q: Returns the measured inhibition for the input compound. Input: CCN(CCCCOc1cc(O)c2c(=O)c(-c3ccc(O)cc3)coc2c1)Cc1ccccc1
A: 10.4

Q: Returns the measured inhibition for the input compound. Input: CN(CCCCOc1ccc(-c2coc3cc(O)cc(O)c3c2=O)cc1)Cc1ccccc1
A: 10.8

Q: Returns the measured inhibition for the input compound. Input: CCN(CCCCOc1cc(O)c2c(=O)c(-c3ccc(O)cc3)coc2c1)Cc1ccccc1OC
A: 7.7

Q: Returns the measured inhibition for the input compound. Input: CCN(CCCOc1ccc(-c2coc3cc(O)cc(O)c3c2=O)cc1)Cc1ccccc1OC
A: 17.6

Q: Returns the measured inhibition for the input compound. Input: CCN(CCCCOc1ccc(-c2coc3cc(OCCCCN(CC)Cc4ccccc4)cc(O)c3c2=O)cc1)Cc1ccccc1
A: 10.3

Q: Returns the measured inhibition for the input compound. Input: CN(CCCCOc1cc(O)c2c(=O)c(-c3ccc(O)cc3)coc2c1)Cc1ccccc1
A: 8.9
